Read-out: CYP3A5 (gene 1577)
Experiment: LTEA_HepaRG_CYP3A5: Life Technologies and Expression Analysis (LTEA) Assay for CYP3A5 using HepaRG (AID 2283493)
Settings: mRNA level, 48 h; actives raise or lower the signal
Experimental: LTEA_HepaRG is a cell based, multiplexed-readout assay that uses HepaRG, a human liver cell line, with measurements taken at 48 hours after chemical dosing on a 96-well plate.LTEA_HepaRG_CYP3A5 is one of 102 assay component(s) measured in the LTEA HepaRG cell culture assay. It is a marker of NR mediated metabolism.Data from the assay component LTEA_HepaRG_CYP3A5 was analyzed into 1 endpoint. […]
The source made the active and inactive calls. Rule for the calls: active = hit-call score of the fitted dose curve at least 0.9, where 1 is the maximum; inactive = score below 0.9.
Valid outcomes are listed here; reply with one: active, inactive

| compound | classification |
| --- | --- |
| C/C=C/c1ccc(OC)cc1 | inactive |
| CCCCCCC(CCCCCCCCCCC(=O)OCC(COC(C)=O)OC(C)=O)OC(C)=O (configuration not stated) | inactive |
| Nc1nc(=S)c2[nH]cnc2[nH]1 | inactive |
| O=C1CCCCC1 | inactive |
| CN(C)C(=O)NC1(c2ccccc2)CCN(CCC[C@]2(c3ccc(Cl)c(Cl)c3)CCCN(C(=O)c3ccccc3)C2)CC1 | inactive |

Can you look up the reported call for "CCCC(=O)O" for me?
inactive

Can you look up the reported call for "CC(=O)O[C@]1(C(C)=O)CC[C@H]2[C@@H]3C=C(Cl)C4=CC(=O)[C@@H]5C[C@@H]5[C@]4(C)[C@H]3CC[C@@]21C" for me?
active

Can you look up the reported call for "CC1=C(C)S(=O)(=O)CCS1(=O)=O" for me?
inactive

Can you look up the reported call for "O=C(O)CC(O)(CC(=O)O)C(=O)O" for me?
inactive

Can you look up the reported call for "Cc1ccc(-c2cc(C(F)(F)F)nn2-c2ccc(S(N)(=O)=O)cc2)cc1" for me?
active

Can you look up the reported call for "COC(=O)CCCC(=O)OC" for me?
inactive

Can you look up the reported call for "Oc1ccccc1O" for me?
inactive

Can you look up the reported call for "CN(C)CCCN(C)CCCN(C)C" for me?
inactive

Can you look up the reported call for "COc1ccc(OC(F)(F)F)cc1CN[C@H]1CCCN[C@H]1c1ccccc1" for me?
active
